- protocol: In vitro biological stability and half-life was measured in phosphate buffer at a pH of 7.4 at 37 degree Centigrade
- Assay type: physicochemical
- stated_conditions: pH 7.4
half-life strictly under 10 min means 1 (yes); at 10 min or over means 0 (no).

chemical_string=C/N=N/Nc1ccccc1 group_label="1 (yes)"
chemical_string=COC(=O)c1ccc(/N=N/N(C)CO)cc1 group_label="0 (no)"
chemical_string=CC(=O)c1ccc(/N=N/N(C)CO)cc1 group_label="0 (no)"
chemical_string=CN=NNc1ccc(C(C)=O)cc1 group_label="0 (no)"
chemical_string=CC(=O)c1ccc(/N=N/N(C)C)cc1 group_label="0 (no)"
chemical_string=CN/N=N/c1ccc(C(=O)OC)cc1 group_label="0 (no)"

---

- protocol: In vitro biological stability and half-life was measured in phosphate buffer at a pH of 4.5 at 37 degree Centigrade
- Type: physicochemical
- stated_conditions: pH 4.5
observable: half-life

chemical_string=CC(=O)c1ccc(/N=N/N(C)C)cc1 observable=half-life assay_value="1.79 h"

---

- protocol: In vitro biological stability and half-life was measured in Earl's buffer at a pH 7.4 of at 37 degree Centigrade
- Format: physicochemical
observable: half-life (min)

chemical_string=CCN=NNc1ccc(C#N)cc1 assay_value=18.3
chemical_string=CN=NNc1ccc(C#N)cc1 assay_value=99

---

- protocol: In vitro biological stability and half-life was measured by HPLC in phosphate buffer at a pH of 7.4 at 37 degree Centigrade
- Format: physicochemical
- stated_conditions: pH 7.4
observable: half-life (min)

chemical_string=CN=NNc1ccc(C(C)=O)cc1 assay_value=15.1

---

- protocol: In vitro biological stability and half-life was measured by HPLC in TRIS buffer at a pH of 7.4 at 37 degree Centigrade
- Assay type: physicochemical
- stated_conditions: pH 7.4
observable: half-life

chemical_string=CN=NNc1ccc(C(C)=O)cc1 assay_value="36.2 min"

---

- protocol: In vitro biological stability and half-life was measured by HPLC in Earl's buffer at a pH of 7.4 at 37 degree Centigrade
- Assay type: physicochemical
- stated_conditions: pH 7.4
Readings of half-life for the listed molecules
observable: half-life

chemical_string=CCN=NNc1ccc(C(C)=O)cc1 observable=half-life assay_value="15.1 min"
chemical_string=CN=NNc1ccc(C(C)=O)cc1 observable=half-life assay_value="66.6 min"

---

- protocol: In vitro biological stability and half-life was measured in phosphate buffer at a pH of 3.5 at 37 degree Centigrade
- Format: physicochemical
- stated_conditions: pH 3.5
observable: half-life (min)

chemical_string=CC(=O)c1ccc(/N=N/N(C)C)cc1 observable=half-life assay_value=11.8

---

- protocol: In vitro biological stability and half-life was measured in phosphate buffer at a pH of 2.5 at 37 degree Centigrade
- Type: physicochemical
- stated_conditions: pH 2.5
observable: half-life (min)

chemical_string=CC(=O)c1ccc(/N=N/N(C)C)cc1 observable=half-life unit_string=min assay_value=1.23

---

- protocol: In vitro biological stability and half-life was measured in phosphate buffer at a pH of 7.5 at 25 degree Centigrade
- Format: physicochemical
- stated_conditions: pH 7.5
Readings of half-life for the listed compounds
observable: half-life (min)

chemical_string=CN/N=N/c1ccc(C(=O)OC)cc1 observable=half-life inequality_sign== assay_value=35
chemical_string=COC(=O)c1ccc(/N=N/N(C)COC(=O)c2ccccc2)cc1 observable=half-life inequality_sign== assay_value=26.5
chemical_string=COC(=O)c1ccc(/N=N/N(C)C)cc1 observable=half-life inequality_sign=> assay_value=1440
chemical_string=COC(=O)c1ccc(/N=N/N(C)CO)cc1 observable=half-life inequality_sign== assay_value=22

---

- protocol: In vitro biological stability and half-life was measured in phosphate buffer at a pH 7.5 of at 25 degree Centigrade
- Assay type: physicochemical
observable: half-life (min)

chemical_string=CCN=NNc1ccc(C(=O)OC)cc1 unit_string=min assay_value=9
chemical_string=CCN(CO)N=Nc1ccc(C(=O)OC)cc1 unit_string=min assay_value=7
